- System Under Test: c-KIT kinase (Homo sapiens (Human))
- Experimental Protocol: c-KIT kinase assay (radiometric)
- Format: biochemical
- Measurement Conditions: class symbol
List of IC50 values.

Would you please look over these solved cases?
>  <Molecule>
COc1ccc(COc2ccc(Nc3ccc4ncc(OC)nc4c3C#N)cc2OC)cc1 [Example 3]

>  <IC50>
100 to 300 nM

$$$$
>  <Molecule>
COc1cc(Nc2ccc3ncc(N4CCOCC4)nc3c2C#N)ccc1OCc1ccc(OC(F)(F)F)cc1 [Example 32]

>  <IC50>
< 100 nM

$$$$
>  <Molecule>
COCCN1CCN(c2cnc3ccc(Nc4ccc(OCc5ccc(OC)nc5)c(OC)c4)c(C#N)c3n2)CC1 [Example 97]

>  <IC50>
100 to 300 nM

$$$$
>  <Molecule>
COc1ccc(COc2ccc(Nc3ccc4ncc(N5CCC(N6CCOCC6)CC5)nc4c3C#N)cc2OC)cn1 [Example 102]

>  <IC50>
100 to 300 nM

$$$$
>  <Molecule>
COc1ccc(COc2ccc(Nc3ccc4ncc(N5CCN(C)CC5)nc4c3C#N)cc2OC)cc1 [Example 31]

>  <IC50>
< 100 nM

$$$$
>  <Molecule>
COc1ccc(COc2ccc(Nc3ccc4ncc(N5CCOCC5)nc4c3C#N)cc2OC)cc1OC [Example 58]

>  <IC50>
< 100 nM

$$$$
>  <Molecule>
COc1cc(Nc2ccc3ncc(N4CC(C)(OC)C4)nc3c2C#N)ccc1OCc1ccc(C)nc1 [Example 138]

>  <IC50>
< 100 nM

$$$$
>  <Molecule>
COc1cc(Nc2ccc3ncc(N4C[C@@H](C)O[C@@H](C)C4)nc3c2C#N)ccc1OCc1ccc(C)nc1 [Example 145]

>  <IC50>
100 to 300 nM

$$$$

Please give the measured IC50 for this molecule: COc1cc(Nc2ccc3ncc(N4CCOCC4)nc3c2C#N)ccc1OCc1nccn1C [Example 48]
300 to 1000 nM

Endpoint output: IC50 of COc1ccc(COc2ccc(Nc3ccc4ncc(N5CCC(COC(C)=O)CC5)nc4c3C#N)cc2OC)cc1 [Example 71] . Value?
< 100 nM

* * *

- Test system: THP-1 human acute monocytic leukemia cell harboring NRAS G12D mutation
- Experimental Protocol: THP-1 cell proliferation assay (counter screen, CellTiter-96)
- Format: cell-based
- Measurement Conditions: Cytotoxicity, THP-1 cells (counter screen), 72 hours
Listing of recorded IC50 by entry.

See these solved cases before continuing.
>  <Molecular String>
COc1cc(N(C)c2ccc3ncc(N4CCOCC4)nc3c2C#N)ccc1OCc1ccc(C2CC2)nc1

>  <IC50>
> 10 µM

$$$$
>  <Molecular String>
COc1ccc(CNc2ccc(Nc3ccc4ncc(N5CCOCC5)nc4c3C#N)cc2OC)cc1

>  <IC50>
> 10 µM

$$$$
>  <Molecular String>
COc1ccc(COc2ccc(Nc3ccc4ncc(N5CCOCC5)nc4c3C#N)cn2)cc1

>  <IC50>
> 10 µM

$$$$

API: the following record is the query input.
# get_value(readout='IC50', item= CCn1cc(COc2ccc(Nc3ccc4ncc(N5CCOCC5)nc4c3C#N)cc2OC)cn1 )
> 10 µM

* * *

- System Under Test: FLT3 kinase (Homo sapiens (Human), UniProt P36888)
- Sequence (P36888 27-993): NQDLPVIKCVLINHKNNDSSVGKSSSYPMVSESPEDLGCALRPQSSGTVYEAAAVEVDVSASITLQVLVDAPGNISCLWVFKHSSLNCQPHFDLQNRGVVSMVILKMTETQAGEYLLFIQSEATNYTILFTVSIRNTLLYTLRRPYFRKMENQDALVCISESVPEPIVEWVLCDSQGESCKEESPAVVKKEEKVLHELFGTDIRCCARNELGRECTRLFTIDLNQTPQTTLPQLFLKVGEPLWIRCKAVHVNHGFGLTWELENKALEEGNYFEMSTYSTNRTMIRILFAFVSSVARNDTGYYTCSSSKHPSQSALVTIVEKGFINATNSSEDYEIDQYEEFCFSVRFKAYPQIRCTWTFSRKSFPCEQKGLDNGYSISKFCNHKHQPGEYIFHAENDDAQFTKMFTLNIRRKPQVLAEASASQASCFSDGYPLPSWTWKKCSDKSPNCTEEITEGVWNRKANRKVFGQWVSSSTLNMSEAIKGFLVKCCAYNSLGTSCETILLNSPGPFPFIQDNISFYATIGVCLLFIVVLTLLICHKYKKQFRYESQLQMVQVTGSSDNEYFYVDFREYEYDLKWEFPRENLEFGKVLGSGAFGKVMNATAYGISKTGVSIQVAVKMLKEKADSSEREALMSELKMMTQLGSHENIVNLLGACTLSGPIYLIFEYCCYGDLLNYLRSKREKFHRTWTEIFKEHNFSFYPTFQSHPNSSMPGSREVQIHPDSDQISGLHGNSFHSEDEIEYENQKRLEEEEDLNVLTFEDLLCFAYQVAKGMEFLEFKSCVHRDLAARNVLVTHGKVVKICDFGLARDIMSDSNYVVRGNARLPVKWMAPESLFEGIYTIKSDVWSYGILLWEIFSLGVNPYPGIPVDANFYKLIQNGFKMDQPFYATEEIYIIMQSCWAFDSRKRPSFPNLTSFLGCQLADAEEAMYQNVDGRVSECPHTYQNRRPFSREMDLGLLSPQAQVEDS
- Experimental Protocol: FLT3 kinase assay (radiometric)
- Assay type: biochemical
- Measurement Conditions: class symbol
// reported IC50 for each item listed

# value lookup — system FLT3 kinase (Homo sapiens (Human), UniProt P36888), readout IC50, item COc1ccc(COc2ccc(Nc3ccc4ncc(OC(C)C)nc4c3C#N)cc2OC)cn1 [Example 119]
100 to 300 nM

Fill in the recorded IC50 for this compound, with FLT3 kinase (Homo sapiens (Human), UniProt P36888) as test system: COc1cc(Nc2ccc3ncc(N4CCOCC4)nc3c2C#N)ccc1OCc1ccc(C)[n+]([O-])c1 [Example 146]
100 to 300 nM

What value of IC50 on FLT3 kinase (Homo sapiens (Human), UniProt P36888) does COc1ccc(COc2ccc(Nc3ccc4ncc(N5CCOCC5)nc4c3C#N)cn2)cc1 [Example 52] have?
300 to 1000 nM

Lab note: need IC50 for COc1ccc(COc2ccc(Nc3ccc4ncc(N5CCOCC5)nc4c3C#N)c(F)c2)cc1 [Example 53] on FLT3 kinase (Homo sapiens (Human), UniProt P36888), anyone have it?
300 to 1000 nM

Look up IC50 with FLT3 kinase (Homo sapiens (Human), UniProt P36888) for this compound: COc1ccc(COc2ccc(Nc3ccc4ncc(N5CCOCC5)nc4c3C#N)cc2)cc1 [Example 38]
100 to 300 nM

* * *

- System Under Test: UniProt P10721
- Experimental Protocol: c-KIT kinase assay (radiometric)
- Type: biochemical
- Measurement Conditions: class symbol
Readout Kind: IC50

Report IC50 for COCc1ccc(COc2ccc(Nc3ccc4ncc(N5CCOCC5)nc4c3C#N)cc2OC)cn1 please.
100 to 300 nM

Bench note: what IC50 did COc1cc(Nc2ccc3ncc(N4CCOCC4)nc3c2C#N)ccc1OCc1ccc(C(F)(F)F)nc1 show?
< 100 nM

Recorded IC50 of CCOc1ccc(COc2ccc(Nc3ccc4ncc(N5CCOCC5)nc4c3C#N)cc2OC)cn1 , please.
< 100 nM

# query: IC50 of entry COc1ccc(COc2ccc(Nc3ccc4ncc(N5CCN(CCO)CC5)nc4c3C#N)cc2OC)cn1
100 to 300 nM

Fill in the blank: the reported IC50 of CCc1ccc(COc2ccc(Nc3ccc4ncc(N5CCOCC5)nc4c3C#N)cc2OC)cc1 is ____.
< 100 nM

Reported IC50 for COc1cc(Nc2ccc3ncc(N4CCOCC4)nc3c2C#N)ccc1OCc1cccs1 : what is it?
< 100 nM

* * *

- System Under Test: CSF-1R kinase (Homo sapiens (Human), UniProt P07333)
- Sequence (P07333 20-972): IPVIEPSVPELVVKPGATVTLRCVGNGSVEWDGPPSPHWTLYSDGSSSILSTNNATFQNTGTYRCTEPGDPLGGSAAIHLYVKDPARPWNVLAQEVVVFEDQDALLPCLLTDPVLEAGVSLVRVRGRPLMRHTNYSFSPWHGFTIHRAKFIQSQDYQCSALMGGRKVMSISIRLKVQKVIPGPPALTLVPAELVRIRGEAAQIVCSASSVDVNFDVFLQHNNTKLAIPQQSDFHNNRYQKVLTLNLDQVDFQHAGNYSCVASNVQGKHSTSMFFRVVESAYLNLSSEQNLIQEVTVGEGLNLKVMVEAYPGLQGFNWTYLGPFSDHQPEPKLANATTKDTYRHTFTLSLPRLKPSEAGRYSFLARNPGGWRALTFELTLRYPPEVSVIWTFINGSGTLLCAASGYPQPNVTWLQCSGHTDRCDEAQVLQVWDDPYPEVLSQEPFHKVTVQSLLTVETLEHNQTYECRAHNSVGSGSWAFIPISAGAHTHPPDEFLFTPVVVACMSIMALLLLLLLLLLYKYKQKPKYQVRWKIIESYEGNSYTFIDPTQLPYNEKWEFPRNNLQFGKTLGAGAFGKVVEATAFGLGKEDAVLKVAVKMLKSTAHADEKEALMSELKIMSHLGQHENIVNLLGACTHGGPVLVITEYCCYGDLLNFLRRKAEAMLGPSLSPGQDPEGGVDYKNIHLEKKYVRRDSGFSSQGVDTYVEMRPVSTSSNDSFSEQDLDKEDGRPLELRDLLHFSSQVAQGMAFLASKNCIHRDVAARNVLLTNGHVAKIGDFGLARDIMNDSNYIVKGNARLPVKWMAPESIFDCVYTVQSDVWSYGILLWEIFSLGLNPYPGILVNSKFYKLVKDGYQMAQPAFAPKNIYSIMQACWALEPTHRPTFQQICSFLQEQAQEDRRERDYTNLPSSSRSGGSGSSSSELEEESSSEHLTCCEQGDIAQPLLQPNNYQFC
- Experimental Protocol: CSF-1R kinase assay (AlphaScreen)
- Assay type: biochemical
- Measurement Conditions: class symbol
pIC50: −log10 of the molar value.
Listed next: entries and their corresponding pIC50.

Example results:
>  <Molecular String>
COc1ccc(COc2ccc(Nc3ccc4ncc(N5CCN(CCO)CC5)nc4c3C#N)cc2OC)cn1

>  <Readout Kind>
pIC50

>  <Value Reported>
> 7.00

$$$$
>  <Molecular String>
COCc1ccc(COc2ccc(Nc3ccc4ncc(N5CCOCC5)nc4c3C#N)cc2OC)nc1

>  <Readout Kind>
pIC50

>  <Value Reported>
> 7.00

$$$$
>  <Molecular String>
C#CCOc1ccc(Nc2ccc3ncc(N4CCOCC4)nc3c2C#N)cc1OC

>  <Readout Kind>
pIC50

>  <Value Reported>
6.00 to 6.52

$$$$

Kindly consider the entry below.
Which measured pIC50 value corresponds to COc1ccc(COc2ccc(Nc3ccc4ncc(N5CCOCC5)nc4c3C#N)c(F)c2)cc1 ?
> 7.00

* * *

- System Under Test: c-KIT kinase (Homo sapiens (Human), UniProt P10721)
- Sequence (P10721 26-976): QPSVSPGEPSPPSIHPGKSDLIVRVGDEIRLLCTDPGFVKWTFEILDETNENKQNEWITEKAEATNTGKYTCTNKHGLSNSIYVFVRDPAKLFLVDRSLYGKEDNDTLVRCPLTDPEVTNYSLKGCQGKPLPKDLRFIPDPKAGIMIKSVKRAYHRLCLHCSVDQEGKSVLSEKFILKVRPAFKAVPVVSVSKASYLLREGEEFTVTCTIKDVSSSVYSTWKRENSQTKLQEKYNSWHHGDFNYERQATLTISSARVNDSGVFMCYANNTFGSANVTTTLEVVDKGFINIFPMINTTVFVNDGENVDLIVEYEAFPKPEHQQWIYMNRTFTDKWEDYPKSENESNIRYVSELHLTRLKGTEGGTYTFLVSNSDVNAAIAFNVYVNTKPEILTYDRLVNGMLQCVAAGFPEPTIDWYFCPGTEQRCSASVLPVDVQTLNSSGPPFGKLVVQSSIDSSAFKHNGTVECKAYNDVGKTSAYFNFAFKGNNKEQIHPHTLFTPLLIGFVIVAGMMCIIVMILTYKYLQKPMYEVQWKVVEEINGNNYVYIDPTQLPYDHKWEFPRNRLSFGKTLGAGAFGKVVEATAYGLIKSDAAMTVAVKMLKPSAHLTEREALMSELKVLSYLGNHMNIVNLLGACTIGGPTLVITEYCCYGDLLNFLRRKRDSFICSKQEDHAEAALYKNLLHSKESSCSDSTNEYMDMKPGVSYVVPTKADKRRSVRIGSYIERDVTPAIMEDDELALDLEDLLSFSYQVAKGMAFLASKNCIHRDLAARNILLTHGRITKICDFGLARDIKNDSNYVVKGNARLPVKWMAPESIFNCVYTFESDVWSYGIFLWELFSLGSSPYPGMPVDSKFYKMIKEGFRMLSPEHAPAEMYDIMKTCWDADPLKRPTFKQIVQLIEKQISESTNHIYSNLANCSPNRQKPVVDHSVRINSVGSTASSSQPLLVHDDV
- Experimental Protocol: c-KIT kinase assay (radiometric)
- Type: biochemical
- Measurement Conditions: class symbol
Reported IC50 values for the following molecules.

Observe how each entry below is paired with its result.
>  <Molecule>
COc1cc(Nc2ccc3ncc(N4CCOCC4)nc3c2C#N)ccc1OCc1ccc(C)[n+]([O-])c1 [Example 146]

>  <Readout Kind>
IC50

>  <Value Reported>
100 to 300 nM

$$$$
>  <Molecule>
CNc1cnc2ccc(Nc3ccc(OCc4ccc(OC)cc4)c(OC)c3)cc2n1 [Example 25]

>  <Readout Kind>
IC50

>  <Value Reported>
< 100 nM

$$$$

I'd like to know its IC50. The molecule in question is COc1ccc(COc2ccc(Nc3ccc4ncc(OCCN(C)C)nc4c3C#N)cc2OC)cc1 [Example 13]
300 to 1000 nM

Entry COc1cc(Nc2ccc3ncc(N4CCN(C)CC4)nc3c2C#N)ccc1OCc1cccc(C#N)c1 [Example 78] : reported IC50 = ?
100 to 300 nM

Name the recorded IC50 for COc1cc(N(C)c2ccc3ncc(N4CCOCC4)nc3c2C#N)ccc1OCc1ccc(C)nc1 [Example 129] .
300 to 1000 nM

I would be grateful if you could share the reported IC50 for C=C(C)c1cnc2ccc(Nc3ccc(OCc4ccc(OC)cc4)c(OC)c3)cc2n1 [Example 106] .
300 to 1000 nM

Could you tell me which IC50 is on file for COc1ccc(COc2ccc(Nc3ccc4ncc(N5CCOCC5)nc4c3C#N)cc2OC)cc1F [Example 93] ?
< 100 nM

Look up IC50: CCOc1ccc(COc2ccc(Nc3ccc4ncc(OC)nc4c3C#N)cc2OC)cc1 [Example 20]
< 100 nM

Endpoint output: IC50 of COc1ccc(COc2ccc(Nc3ccc4ncc(N5CCOCC5)nc4c3C#N)cc2OC)c(F)c1 [Example 94] . Value?
< 100 nM

# get_value(readout='IC50', item= COc1ccc(COc2ccc(Nc3ccc4ncc(N5CCOCC5)nc4c3C#N)cc2OC)cc1C#N [Example 96] )
100 to 300 nM

May I ask what IC50 has been recorded for COc1cc(Nc2ccc3ncc(N4CCOCC4)nc3c2C#N)ccc1OCc1ccc(CN(C)C)nc1 [Example 115] ?
300 to 1000 nM

So what's the measured IC50 for this one? COc1cc(Nc2ccc3ncc(N4CCNCC4)nc3c2C#N)ccc1OCc1ccc(C)nc1 [Example 67]
< 100 nM

Request the reported IC50 associated with COc1ccc(COc2ccc(Nc3ccc4ncc(N5CCCC5)nc4c3C#N)cc2OC)cc1 [Example 62]
< 100 nM

# query: IC50 of entry COc1cc(Nc2ccc3ncc(N4CCOCC4)nc3c2C#N)ccc1OCc1cccnc1 [Example 43]
< 100 nM

Where do the numbers come from? From patent US10689362B2.
